TEST SYSTEM: UniProtKB O00408
Sequence (O00408 whole entry, the tested form may be a part): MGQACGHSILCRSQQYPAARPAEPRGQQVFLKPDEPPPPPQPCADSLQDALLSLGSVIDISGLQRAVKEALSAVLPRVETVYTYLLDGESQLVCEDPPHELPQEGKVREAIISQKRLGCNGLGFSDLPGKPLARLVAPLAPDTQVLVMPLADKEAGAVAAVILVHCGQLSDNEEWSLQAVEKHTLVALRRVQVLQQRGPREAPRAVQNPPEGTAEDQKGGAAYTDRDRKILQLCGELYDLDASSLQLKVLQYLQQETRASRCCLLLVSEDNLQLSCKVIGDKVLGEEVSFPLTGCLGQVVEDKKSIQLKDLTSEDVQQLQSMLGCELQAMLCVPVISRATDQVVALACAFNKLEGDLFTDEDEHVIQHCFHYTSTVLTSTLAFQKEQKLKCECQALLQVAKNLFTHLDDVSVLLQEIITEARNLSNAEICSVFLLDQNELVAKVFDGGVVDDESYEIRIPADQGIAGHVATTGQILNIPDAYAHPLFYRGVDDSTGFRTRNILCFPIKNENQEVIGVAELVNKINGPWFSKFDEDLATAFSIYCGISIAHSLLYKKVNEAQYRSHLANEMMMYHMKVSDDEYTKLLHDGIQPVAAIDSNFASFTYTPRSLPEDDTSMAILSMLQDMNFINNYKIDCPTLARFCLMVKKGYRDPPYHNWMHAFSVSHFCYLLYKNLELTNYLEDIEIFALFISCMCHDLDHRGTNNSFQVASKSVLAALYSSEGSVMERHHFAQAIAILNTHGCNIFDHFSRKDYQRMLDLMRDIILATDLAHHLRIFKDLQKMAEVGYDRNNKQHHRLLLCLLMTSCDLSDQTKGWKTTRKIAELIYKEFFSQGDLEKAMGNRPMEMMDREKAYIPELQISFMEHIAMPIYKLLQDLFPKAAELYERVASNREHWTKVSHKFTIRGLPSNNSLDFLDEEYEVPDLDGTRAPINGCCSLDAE
TEST PROTOCOL: Inhibition of recombinant human PDE2A catalytic domain (580 to 919 residues) expressed in Escherichia coli BL21 (Codonplus) using [3H]cGMP as substrate after 15 mins by liquid scintillation counting method
PROPERTY LABEL: IC50

>>> measurement("Nc1nc(Cl)nc2c1ncn2[C@H]1C[C@H](O)[C@@H](CO)O1")
"> 10 µM"
>>> measurement("Nc1ncnc2c1ncn2[C@@H]1O[C@H](CO)[C@@H](O)[C@@H]1F")
"> 10 µM"
>>> measurement("Nc1nc(Cl)nc2c1ncn2[C@@H]1OC[C@@H](O)[C@H](O)[C@H]1O")
"> 10 µM"
>>> measurement("CCCCCC[C@H]([C@H](C)O)n1cnc2c(N)ncnc21 [(+)-EHNA]")
"2.46 µM"
>>> measurement("Nc1nc(Cl)nc2c1ncn2[C@@H]1O[C@H](CO)[C@@H](O)[C@@H]1F")
"3.12 µM"
>>> measurement("Nc1nc(Cl)nc2c1ncn2[C@@H]1O[C@H](CO)[C@@H](O)[C@H]1O")
"> 10 µM"

Values from ChEMBL document CHEMBL4177707
